Provide the recorded T/C (%) for the entries that follow.
Tested on: L1210 murine leukemia
test_protocol: In vivo antitumor activity on DCF1 mice bearing L1210 murine leukemia
test_context: dose 2.000 mg/kg, i.p. days 1, 5, 9; mean survival time vs control; 60-day observation
Where a name gives a salt, the structure may show the parent alone.
The reply should be a number in %, with the unit left off.

The molecule COc1cccc2c1C(=O)c1c(O)c3c(c(O)c1C2=O)CC(O)(C(=O)COC(=O)C(N)C(C)C)CC3OC1OC(C)C(O)C(O)C1F (stereo not shown) [Example 11, HCl salt] , tested on L1210 murine leukemia, showed T/C (%) of 492

The molecule COc1cccc2c1C(=O)c1c(O)c3c(c(O)c1C2=O)C[C@@](O)(C(=O)CO)C[C@@H]3O[C@H]1C[C@H](N)[C@H](O)[C@H](C)O1 [Doxorubicin hydrochloride, reference compound] , tested on L1210 murine leukemia, showed T/C (%) of 242

The molecule COc1cccc2c1C(=O)c1c(O)c3c(c(O)c1C2=O)CC(O)(C(=O)COC(=O)C1CCCN1)CC3OC1OC(C)C(O)C(O)C1F (stereo not shown) [Example 13, HCl salt] , tested on L1210 murine leukemia, showed T/C (%) of 367

The molecule COc1cccc2c1C(=O)c1c(O)c3c(c(O)c1C2=O)CC(O)(C(=O)COC(=O)C(C)N)CC3OC1OC(C)C(O)C(O)C1F (stereo not shown) [Example 9, HCl salt] , tested on L1210 murine leukemia, showed T/C (%) of 356

The molecule COc1cccc2c1C(=O)c1c(O)c3c(c(O)c1C2=O)CC(O)(C(=O)COC(=O)CCCCCN)CC3OC1OC(C)C(O)C(O)C1F (stereo not shown) [Example 7, HCl salt] , tested on L1210 murine leukemia, showed T/C (%) of 329

The molecule COc1cccc2c1C(=O)c1c(O)c3c(c(O)c1C2=O)CC(O)(C(=O)COC(=O)CN)CC3OC1OC(C)C(O)C(O)C1F (stereo not shown) [Example 3, HCl salt] , tested on L1210 murine leukemia, showed T/C (%) of 255

The molecule COc1cccc2c1C(=O)c1c(O)c3c(c(O)c1C2=O)CC(O)(C(=O)COC(=O)CCN)CC3OC1OC(C)C(O)C(O)C1F (stereo not shown) [Example 5, HCl salt] , tested on L1210 murine leukemia, showed T/C (%) of 361
